- experimentalSetup: in acetic acid, 333.15 K
propertyMeasured: solubility (mole fraction)
Numbers only.

So for CSCC1CN(/N=C/c2ccc([N+](=O)[O-])o2)C(=O)O1 (stereo unspecified) , the logged solubility (mole fraction) turned out to be 0.00168

---

- experimentalSetup: in DMSO, 298.15 K
propertyMeasured: solubility (mole fraction)

Note to self: solubility (mole fraction) recorded for CSCC1CN(/N=C/c2ccc([N+](=O)[O-])o2)C(=O)O1 (stereo unspecified) was 0.021

---

- experimentalSetup: in THF, 333.15 K
propertyMeasured: solubility (mole fraction)
Numbers only.

For reference, reported solubility (mole fraction) for CSCC1CN(/N=C/c2ccc([N+](=O)[O-])o2)C(=O)O1 (stereo unspecified) stands at 0.00397

---

- experimentalSetup: in DMSO, 303.15 K
propertyMeasured: solubility (mole fraction)

Item: CSCC1CN(/N=C/c2ccc([N+](=O)[O-])o2)C(=O)O1 (stereo unspecified) | solubility (mole fraction): 0.0255

---

- experimentalSetup: in water, 323.15 K
propertyMeasured: solubility (mole fraction)
Answers are plain numbers.

Entry CSCC1CN(/N=C/c2ccc([N+](=O)[O-])o2)C(=O)O1 (stereo unspecified) ; solubility (mole fraction) = 7.93e-05

---

- experimentalSetup: in acetone, 318.15 K
propertyMeasured: solubility (mole fraction)
Give bare numbers.

solubility (mole fraction) recorded for this compound, CSCC1CN(/N=C/c2ccc([N+](=O)[O-])o2)C(=O)O1 (stereo unspecified) , is 0.0035

---

- experimentalSetup: in water, 303.15 K
propertyMeasured: solubility (mole fraction)
Give bare numbers.

solubility (mole fraction) in this record for CSCC1CN(/N=C/c2ccc([N+](=O)[O-])o2)C(=O)O1 (stereo unspecified) : 2.75e-05

---

- experimentalSetup: in DMSO, 328.15 K
propertyMeasured: solubility (mole fraction)
One number for each entry.

According to the records, this compound CSCC1CN(/N=C/c2ccc([N+](=O)[O-])o2)C(=O)O1 (stereo unspecified) displays solubility (mole fraction) of 0.0596

---

- experimentalSetup: in ethanol, 303.15 K
propertyMeasured: solubility (mole fraction)
One number for each entry.

Entry under test: CSCC1CN(/N=C/c2ccc([N+](=O)[O-])o2)C(=O)O1 (stereo unspecified) . Its solubility (mole fraction) was 3.65e-05

---

- experimentalSetup: in DMF, 318.15 K
propertyMeasured: solubility (mole fraction)
Answers are plain numbers.

Just so you know, measured solubility (mole fraction) for CSCC1CN(/N=C/c2ccc([N+](=O)[O-])o2)C(=O)O1 (stereo unspecified) came out at 0.0338

---

- experimentalSetup: in acetic acid, 293.15 K
propertyMeasured: solubility (mole fraction)
Answers are plain numbers.

Value of solubility (mole fraction) reported for the compound CSCC1CN(/N=C/c2ccc([N+](=O)[O-])o2)C(=O)O1 (stereo unspecified) is 0.000206

---

- experimentalSetup: in THF, 323.15 K
propertyMeasured: solubility (mole fraction)

Lab book: solubility (mole fraction) of CSCC1CN(/N=C/c2ccc([N+](=O)[O-])o2)C(=O)O1 (stereo unspecified) noted as 0.0026

---

- experimentalSetup: in acetonitrile, 333.15 K
propertyMeasured: solubility (mole fraction)

According to the records, this compound CSCC1CN(/N=C/c2ccc([N+](=O)[O-])o2)C(=O)O1 (stereo unspecified) displays solubility (mole fraction) of 0.0121

FYI, the data here is from BigSolDB 2.1.
